Tested Target: ERα (estrogen receptor alpha) (Homo sapiens)
Sequence (P03372 whole entry): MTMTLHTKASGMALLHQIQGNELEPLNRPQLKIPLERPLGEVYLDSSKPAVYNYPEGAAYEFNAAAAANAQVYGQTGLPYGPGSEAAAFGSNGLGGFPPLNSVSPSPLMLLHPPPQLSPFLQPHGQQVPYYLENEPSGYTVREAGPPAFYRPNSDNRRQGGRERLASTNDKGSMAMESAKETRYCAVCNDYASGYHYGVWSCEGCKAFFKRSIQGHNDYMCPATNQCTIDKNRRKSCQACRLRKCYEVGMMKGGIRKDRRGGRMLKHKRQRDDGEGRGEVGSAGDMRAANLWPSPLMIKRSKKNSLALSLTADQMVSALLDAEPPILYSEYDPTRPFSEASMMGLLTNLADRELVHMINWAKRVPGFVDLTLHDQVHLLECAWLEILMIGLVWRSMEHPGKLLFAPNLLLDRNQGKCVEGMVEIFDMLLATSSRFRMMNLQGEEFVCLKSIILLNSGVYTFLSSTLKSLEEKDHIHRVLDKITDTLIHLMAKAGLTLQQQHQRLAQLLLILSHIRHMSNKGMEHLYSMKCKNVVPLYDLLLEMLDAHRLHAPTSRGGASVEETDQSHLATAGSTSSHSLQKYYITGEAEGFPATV
Property Label: pIC50
One number for each entry, as −log10 of the molar value.

INPUT: // pIC50 lookup, key: `COc1ccc2c(C(=O)c3ccc(OCCN4CCCCC4)cc3)c(-c3ccc(O)cc3)sc2c1`
OUTPUT: 6.74
